assay_target: CD28 (Homo sapiens, UniProt P10747)
assay_remarks: Jurkat/IL2 + CHO/OKT3 +/- PD-L1 reporter assay: PD-L1-dependent CD28 costimulation
Assay type: cell-based
Set-up: host or cells: Jurkat cells expressing an IL-2-luciferase reporter
condition_summary: Table E21; Jurkat/IL2 + CHO/OKT3/PD-L1; CD80 Conc 5.0 nM
The reader will find reported Relative Luciferase Units (RLU), CD80 Conc 5.0 nM values listed item by item below.
measured_endpoint: Relative Luciferase Units (RLU), CD80 Conc 5.0 nM

[[record]]
molecule = "E35D/D46V/V68M/L85Q (protein) VIHVTKEVKEVATLSCGHNVSVEELAQTRIYWQKDKKMVLTMMSGVMNIWPEYKNRTIFDITNNLSIMILALRPSDEGTYECVVQKYEKDAFKREHLAEVTLSVKAD"
result = "864 RLU"

[[record]]
molecule = "E35D/M47V/V68M/K89N (protein) VIHVTKEVKEVATLSCGHNVSVEELAQTRIYWQKDKKMVLTMMSGDVNIWPEYKNRTIFDITNNLSIMILALRPSDEGTYECVVLKYENDAFKREHLAEVTLSVKAD"
result = "779 RLU"

[[record]]
molecule = "E35D/M47V/V68M (protein) VIHVTKEVKEVATLSCGHNVSVEELAQTRIYWQKDKKMVLTMMSGDVNIWPEYKNRTIFDITNNLSIMILALRPSDEGTYECVVLKYEKDAFKREHLAEVTLSVKAD"
result = "841 RLU"

[[record]]
molecule = "E35D/D46V/M47L (protein) VIHVTKEVKEVATLSCGHNVSVEELAQTRIYWQKDKKMVLTMMSGVLNIWPEYKNRTIFDITNNLSIVILALRPSDEGTYECVVLKYEKDAFKREHLAEVTLSVKAD"
result = "746 RLU"

